Entries annotated with measured pIC50
# target_system: Polyunsaturated fatty acid 5-lipoxygenase (Rattus norvegicus, UniProt P12527)
# Sequence (P12527 whole entry): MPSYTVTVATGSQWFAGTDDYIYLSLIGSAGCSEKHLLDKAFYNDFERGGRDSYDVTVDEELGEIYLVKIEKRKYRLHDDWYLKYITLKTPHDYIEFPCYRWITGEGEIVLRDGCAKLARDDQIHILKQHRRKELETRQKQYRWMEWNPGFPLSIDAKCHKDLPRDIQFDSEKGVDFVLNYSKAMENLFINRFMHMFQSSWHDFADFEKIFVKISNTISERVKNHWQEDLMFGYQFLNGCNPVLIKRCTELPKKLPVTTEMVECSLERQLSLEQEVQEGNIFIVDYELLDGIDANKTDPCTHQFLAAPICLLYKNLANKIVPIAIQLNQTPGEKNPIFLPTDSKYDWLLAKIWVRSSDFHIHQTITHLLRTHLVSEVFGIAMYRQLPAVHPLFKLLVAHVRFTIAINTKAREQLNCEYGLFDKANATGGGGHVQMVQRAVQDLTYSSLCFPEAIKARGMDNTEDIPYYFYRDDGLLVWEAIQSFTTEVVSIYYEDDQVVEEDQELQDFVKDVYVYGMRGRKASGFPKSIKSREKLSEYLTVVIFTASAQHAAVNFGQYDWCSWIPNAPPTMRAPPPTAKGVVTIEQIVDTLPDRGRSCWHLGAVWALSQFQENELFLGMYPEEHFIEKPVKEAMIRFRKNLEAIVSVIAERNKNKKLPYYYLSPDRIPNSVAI
# run_description: Inhibition of 5-lipoxygenase (5-lo) in intact rat polymorphonuclear leukocyte RPMNL
pIC50: −log10 of the molar value.
measure_name: pIC50

{"smiles_code": "CCCc1sc(-c2ccccc2)nc1OC(C)=O", "measured": 6.18}
{"smiles_code": "CCCc1sc(-c2ccccc2)nc1OC(=O)NC", "measured": 6.40}
{"smiles_code": "CCCc1sc(-c2ccccc2)nc1OC(=O)OCC", "measured": 6.15}
{"smiles_code": "COc1ccc(-c2nc(O)c(-c3ccccc3)s2)cc1", "measured": 6.35}
{"smiles_code": "COC(=O)Cc1sc(-c2ccccc2)nc1O", "measured": 5.68}
{"smiles_code": "Cc1ccc(-c2nc(O)c(C)s2)cc1", "measured": 5.92}

These entries and their values trace back to ChEMBL document CHEMBL1125582.
